meta.source: patent US8742100B2

Exercise: for every item that follows, state its recorded fraction unbound at 30 min, 10 µM.
assay_protocol: Binding to fetal bovine serum (plasma protein binding), centrifugal filter device, HPLC
Type: in vitro ADME
condition_description: bovine, 5% w/v fetal bovine serum in phosphate buffered saline, 10 uM, 5% fetal bovine serum in PBS; read-out: % Bound Run 1 (converted)
Write the number on its own, no unit after it.

Quick one: fraction unbound at 30 min, 10 µM of CCN(CC)Cc1cn(CC=C(C)C)c2ccc(-c3cccc(C)c3)cc12 [Compound J38G] ?
0.697

Quick one: fraction unbound at 30 min, 10 µM of CCCCCCCCn1cc(CC(N)=O)c2cc(-c3cccc(C)c3)ccc21 [cysmethynil, reference compound] ?
0.136

Quick one: fraction unbound at 30 min, 10 µM of CCCCCCCCn1cc(CN(CC)CC)c2cc(-c3cccc(C)c3)ccc21 [Compound J17G] ?
0.317
